- Tested on: Cryptococcus neoformans
- assay-method-text: Compound was evaluated for antifungal activity as minimum cell growth inhibition against Cryptococcus neoformans - 2867
- Format: functional
endpoint-name: MIC (mg/L)

(a) C/C=C/C=C(/O[C@H]1[C@H](O)[C@H](OCC23C[C@@H]4[C@H](C)CC[C@H]4C4(C=O)CC2C=C(C(C)C)C34C(=O)O)O[C@H](C)[C@H]1O)C(=O)C(CC)CC (stereo partly drawn)
(b) COC[C@H]1O[C@@H](OCC23C[C@@H]4[C@H](C)CC[C@H]4C4(C=O)CC2C=C(C(C)C)C34C(=O)O)[C@H]2O[C@H]2[C@@H]1OC (stereo partly drawn)
When their MIC values are compared, which is larger, a or b ? Your answer should be the label attached to the chosen record.
b
(b: 16 mg/L, a: 0.25 mg/L)

(a) CO[C@H]1[C@H]2O[C@H]2[C@@H](OCC23C[C@@H]4[C@H](C)CC[C@H]4C4(C=O)CC2C=C(C(C)C)C34C(=O)O)O[C@@H]1C (stereo partly drawn)
(b) CO[C@H]1[C@@H]2O[C@@H]2[C@H](OCC23C[C@@H]4[C@H](C)CC[C@H]4C4(C=O)CC2C=C(C(C)C)C34C(=O)O)O[C@@H]1C (stereo partly drawn)
When their MIC values are compared, which is larger, a or b ? Your answer should be the label attached to the chosen record.
a

Measured values drawn from ChEMBL document CHEMBL1135111 for this set.
